Biological target: T1, human TROP2 protein (Sino Biological, #10428-H08H) (human, UniProt P09758 27-274)
T1 construct: bought protein; also called human Trop2 protein antigen (His tag); not shown: His tag
T1 sequence (looked up): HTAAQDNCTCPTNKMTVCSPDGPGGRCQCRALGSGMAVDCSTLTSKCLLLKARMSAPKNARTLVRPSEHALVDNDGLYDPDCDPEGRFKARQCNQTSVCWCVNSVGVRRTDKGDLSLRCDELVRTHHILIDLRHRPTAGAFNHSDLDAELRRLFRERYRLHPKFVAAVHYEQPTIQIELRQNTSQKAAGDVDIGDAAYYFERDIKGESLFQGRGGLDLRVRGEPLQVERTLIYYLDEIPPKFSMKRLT
Experiment: BLI, Octet RED96, AHC sensor
MEASURED_ATTRIBUTE: kon (M⁻¹ s⁻¹)

| BINDER | UNIT | RECORDED_MEASUREMENT |
| --- | --- | --- |
| PR001138 (antibody, human IgG1, kappa, V domains shown, fully human IgG1/kappa; also called antibody No. (7)) VH: QVQLQESGPRLVKPSETLSLTCAVSGYSISSGYYWGWIRQSPGMGLEWIAYIYHDGSTYCNPSLKSRVTMSVDTSKNQFSLKLRSVTAADTAVYYCARDGAAAPFDYWGQGTLVTVSS VL: DIQMTQSPSTLSASVGDRVTITCRASQSISNWLAWYQQKPGKAPKVLIYKASSLESGVPSRFSGSGSGTEFTLTINSLQPDDFATYYCQQYDSYSITFGQGTRLEIKR | M⁻¹ s⁻¹ | 148000 |
| PR001130 (antibody, human IgG1, kappa, V domains shown, fully human IgG1/kappa; also called antibody No. (2)) VH: QVQLQESGPGLVKPSGTLSLTCAVSGDSISSHNWWSWVRQPPGKGLEWIGEIYHSGITSYNPSLKSRVTISVDKSKNQFSLKLNSVTAADTAMYYCARGSGVISYFDYWGQGTLVTVSS VL: DIQMTQSPSTLSASVGDRVTITCRASQSIGNWLAWYQQKPGKAPKLLIYKASSLESGVPSRFSGSGSGTEFTLTISSLQPDDFATYYCQQYDSYSPITFGQGTRLEIKR | M⁻¹ s⁻¹ | 55200 |
| PR001160 (antibody, human IgG1, kappa, V domains shown, fully human IgG1/kappa; also called antibody No. (22)) VH: QVQLVESGGGVVQPGRSLRLSCEASGFTFSHYGMHWVRQAPGKGLEWVAVIWYDGIMKNYIESVKGRFTISRDNSKNTLYLQMNRLRAEDTAVYYCARDGGFGELNYYGLDVWGQGTTVTVSS VL: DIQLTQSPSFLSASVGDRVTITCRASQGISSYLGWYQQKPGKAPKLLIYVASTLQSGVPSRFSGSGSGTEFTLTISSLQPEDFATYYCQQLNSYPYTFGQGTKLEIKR | M⁻¹ s⁻¹ | 116000 |
